target: human A1 receptor (Homo sapiens); construct: expressed in transfected cells; host or cells: CHO; assay: cAMP HTRF functional assay, recombinant CHO cells expressing human A1 receptor, forskolin and agonist CPA; assay type: cell-based
Sequence (P30542 whole entry): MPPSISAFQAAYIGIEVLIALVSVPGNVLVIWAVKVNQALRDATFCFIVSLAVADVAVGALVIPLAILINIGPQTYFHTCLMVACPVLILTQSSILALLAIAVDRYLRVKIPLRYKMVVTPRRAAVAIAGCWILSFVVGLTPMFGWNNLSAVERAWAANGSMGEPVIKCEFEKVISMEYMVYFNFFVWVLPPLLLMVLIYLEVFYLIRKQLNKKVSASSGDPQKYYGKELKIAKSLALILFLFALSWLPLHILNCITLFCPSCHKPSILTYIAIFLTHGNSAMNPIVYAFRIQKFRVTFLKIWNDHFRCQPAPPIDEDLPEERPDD
observationType: IC50

> print(dat)
                                    molecule                experimentaltarget  observationtype  observedmeasurement
 1  COc1ccc(-c2ccc(F)cc2)c2ncc(NC(=O)C3CC3)nc12 [compound 126]  human A1 receptor (Homo sapiens)             IC50            < 1000 nM
 2  COc1ccc(C2CCOCC2)c2ncc(NC(=O)c3cnc(C)o3)nc12 [compound 130]  human A1 receptor (Homo sapiens)             IC50            > 1000 nM
 3  COc1ccc(N2CCCOCC2)c2ncc(NC(=O)C3CC3)nc12 [compound 161]  human A1 receptor (Homo sapiens)             IC50            > 1000 nM
 4  COc1ccc(-c2cc(F)ccc2F)c2ncc(NC(=O)C3CC3)nc12 [compound 124]  human A1 receptor (Homo sapiens)             IC50            < 1000 nM
 5  COc1ccc(-c2cnn(C3CN(C(=O)OC(C)(C)C)C3)c2)c2ncc(NC(=O)N3CCC(C)(O)CC3)nc12 [compound 116]  human A1 receptor (Homo sapiens)             IC50            < 1000 nM
 6  C#CCC1(O)CCN(C(=O)Nc2cnc3c(C4CCOCC4)ccc(OC)c3n2)CC1 [compound 10]  human A1 receptor (Homo sapiens)             IC50            < 1000 nM
 7  CCOC(=O)c1nnc(NC(=O)Nc2cnc3c(C4=CCOCC4)ccc(OC)c3n2)s1 [compound 143]  human A1 receptor (Homo sapiens)             IC50            > 1000 nM
 8  COc1ccc(C2CCOCC2)c2ncc(NC(=O)c3cnn(C)c3)nc12 [compound 68]  human A1 receptor (Homo sapiens)             IC50            > 1000 nM
 9  COc1ccc(C2=CCOCC2)c2ncc(NC(=O)c3nnc(C)s3)nc12 [compound 146]  human A1 receptor (Homo sapiens)             IC50            > 1000 nM
10  COc1ccc(-c2cccnc2)c2nc(NC(=O)N3CCC(C)(O)CC3)cnc12 [compound 112]  human A1 receptor (Homo sapiens)             IC50            > 1000 nM
11  COc1ccc(-c2cccc(F)c2F)c2ncc(NC(=O)c3cnc(C)o3)nc12 [compound 125]  human A1 receptor (Homo sapiens)             IC50            < 1000 nM
12  COc1ccc(-c2cccnc2)c2ncc(NC(=O)C3CC3)nc12 [compound 121]  human A1 receptor (Homo sapiens)             IC50            < 1000 nM
13  CCCCc1ccc(OC)c2nc(NC(=O)N3CCC(C)(O)CC3)cnc12 [compound 108]  human A1 receptor (Homo sapiens)             IC50            > 1000 nM
14  COc1ccc(-c2cnn(C(F)F)c2)c2ncc(NC(=O)N3CCC(C)(O)CC3)nc12 [compound 158]  human A1 receptor (Homo sapiens)             IC50            > 1000 nM
15  COc1ccc(C2=CCOCC2)c2ncc(NC(=O)c3cnc(C)o3)nc12 [compound 132]  human A1 receptor (Homo sapiens)             IC50            < 1000 nM
16  COCCOCc1cccc(-c2ccc(OC)c3nc(NC(=O)N4CCC(C)(O)CC4)cnc23)c1 [compound 118]  human A1 receptor (Homo sapiens)             IC50            > 1000 nM
17  COc1ccc(-c2ccccc2)c2ncc(NC(=O)N3CCC(C)(O)CC3)nc12 [compound 2]  human A1 receptor (Homo sapiens)             IC50            > 1000 nM
18  COc1ccc(C2=CCOCC2)c2ncc(NC(=O)c3cnn(C)c3)nc12 [compound 135]  human A1 receptor (Homo sapiens)             IC50             < 100 nM
19  COCCOCCn1cc(-c2ccc(OC)c3nc(NC(=O)N4CCC(C)(O)CC4)cnc23)cn1 [compound 119]  human A1 receptor (Homo sapiens)             IC50            > 1000 nM
20  COc1ccc(C2=CCOCC2)c2ncc(NC(=O)c3cnsc3)nc12 [compound 136]  human A1 receptor (Homo sapiens)             IC50            < 1000 nM
21  COCCOc1cccc(-c2ccc(OC)c3nc(NC(=O)C4CC4)cnc23)c1 [compound 147]  human A1 receptor (Homo sapiens)             IC50            < 1000 nM
22  COc1ccc(-c2cccnc2)c2ncc(NC(=O)c3cnc(C)o3)nc12 [compound 138]  human A1 receptor (Homo sapiens)             IC50              < 10 nM
23  COc1ccc(C2=CCOCC2)c2ncc(NC(=O)C3(CN(C)C)CC3)nc12 [compound 145]  human A1 receptor (Homo sapiens)             IC50            > 1000 nM
24  COc1ccc(-c2cc(F)ccc2F)c2ncc(NC(=O)c3cnc(C)o3)nc12 [compound 128]  human A1 receptor (Homo sapiens)             IC50            > 1000 nM
25  C#CCC1(O)CCN(C(=O)Nc2cnc3c(C4CCOCC4)cnc(OC)c3n2)CC1 [compound 103]  human A1 receptor (Homo sapiens)             IC50            > 1000 nM
26  COc1ccc(C2CCOCC2)c2ncc(NC(=O)N3CC4(C3)CS(=O)(=O)C4)nc12 [compound 18]  human A1 receptor (Homo sapiens)             IC50            > 1000 nM
27  COc1ccc(N2CCCCCC2)c2ncc(NC(=O)C3CC3)nc12 [compound 122]  human A1 receptor (Homo sapiens)             IC50            > 1000 nM
28  COCCOc1cccc(-c2ccc(OC)c3nc(NC(=O)N4CCC(C)(O)CC4)cnc23)c1 [compound 117]  human A1 receptor (Homo sapiens)             IC50            > 1000 nM
29  COc1ccc(-c2ccc(F)cc2)c2ncc(NC(=O)c3cnc(C)o3)nc12 [compound 131]  human A1 receptor (Homo sapiens)             IC50            < 1000 nM
30  COc1ccc(-c2ccccc2F)c2ncc(NC(=O)C3CC3)nc12 [compound 120]  human A1 receptor (Homo sapiens)             IC50            < 1000 nM
31  COc1ncc(C2CCOCC2)c2ncc(NC(=O)C3CC3)nc12 [compound 106]  human A1 receptor (Homo sapiens)             IC50            < 1000 nM
32  COc1ccc(C2=CCOCC2)c2ncc(NC(=O)C3(N)CC3)nc12 [compound 137]  human A1 receptor (Homo sapiens)             IC50            < 1000 nM
33  COc1ncc(-c2ccc(OC)c3nc(NC(=O)C4CC4)cnc23)cn1 [compound 156]  human A1 receptor (Homo sapiens)             IC50            < 1000 nM
34  COc1ncc(-c2ccccc2)c2ncc(NC(=O)N3CCC(C)(O)CC3)nc12 [compound 27]  human A1 receptor (Homo sapiens)             IC50            < 1000 nM
35  COc1ccc(C2=CCOCC2)c2ncc(NC(=O)C3(C(=O)N(C)C)CC3)nc12 [compound 144]  human A1 receptor (Homo sapiens)             IC50            > 1000 nM

====

Recorded IC50 for the following molecules
biological target: human A2A receptor (Homo sapiens, UniProt P29274); construct: expressed in transfected cells; host or cells: HEK293; assay: cAMP HTRF functional assay, recombinant HEK293 cells expressing human A2A receptor, agonist NECA; assay type: cell-based
Sequence (P29274 whole entry): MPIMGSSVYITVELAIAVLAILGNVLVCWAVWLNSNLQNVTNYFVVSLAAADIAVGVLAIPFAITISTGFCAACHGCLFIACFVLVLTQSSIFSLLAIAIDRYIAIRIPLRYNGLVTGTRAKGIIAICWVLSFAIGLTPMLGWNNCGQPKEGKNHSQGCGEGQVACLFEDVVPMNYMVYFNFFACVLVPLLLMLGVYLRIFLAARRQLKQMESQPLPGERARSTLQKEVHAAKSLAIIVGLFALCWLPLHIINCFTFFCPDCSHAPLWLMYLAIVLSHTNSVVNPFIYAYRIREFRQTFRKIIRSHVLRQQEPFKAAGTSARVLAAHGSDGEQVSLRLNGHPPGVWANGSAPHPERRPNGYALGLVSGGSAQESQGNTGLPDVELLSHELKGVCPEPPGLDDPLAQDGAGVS
observationType: IC50

> print(dat)
                              compoundsmiles  observationtype  observedmeasurement
 1  COc1ccc(-c2ccccc2)c2ncc(NC(=O)c3cnc[nH]3)nc12             IC50             < 100 nM
 2  COc1ccc(C2=CCOCC2)c2ncc(NC(=O)C3(N)CC3)nc12             IC50              < 10 nM
 3  COCCOc1cccc(-c2ccc(OC)c3nc(NC(=O)c4cnc(C)s4)cnc23)c1             IC50             < 100 nM
 4  COc1ncc(C2CCOCC2)c2ncc(NC(=O)N3CCC(C)(CO)CC3)nc12             IC50              < 10 nM
 5  COc1ccc(C2=CCOCC2)c2ncc(NC(=O)c3cnc[nH]3)nc12             IC50             < 100 nM
 6  COc1ccc(C2=CCOCC2)c2ncc(NC(=O)N3CCC(C)(O)CC3)nc12             IC50              < 10 nM
 7  COc1ccc(C2CCOCC2)c2ncc(NC(=O)c3cnn(C)c3)nc12             IC50              < 10 nM
 8  COc1ccc(C2=CCOCC2)c2ncc(NC(=O)c3csc(N)n3)nc12             IC50             < 100 nM
 9  COc1ccc(-c2ccc(F)cc2)c2ncc(NC(=O)C3CC3)nc12             IC50              < 10 nM
10  COc1ncc(-c2ccc(OC)c3nc(NC(=O)C4CC4)cnc23)cn1             IC50             < 100 nM
11  COc1ccc(N2CCCOCC2)c2ncc(NC(=O)C3CC3)nc12             IC50             < 100 nM
12  COc1ccc(C2CCOCC2)c2ncc(NC(=O)N3CCC(C)(O)CC3)nc12             IC50             < 100 nM
